Give measured log10 Ki for each item. Keep answers brief.
Target System: human adenosine A1 receptor (Homo sapiens, UniProt P30542)
Construct: expressed in transfected cells; host or cells: HEK293 cells infected with BacMam (the same paragraph also labels the preparation CHO-hA1)
Sequence (P30542 1-326): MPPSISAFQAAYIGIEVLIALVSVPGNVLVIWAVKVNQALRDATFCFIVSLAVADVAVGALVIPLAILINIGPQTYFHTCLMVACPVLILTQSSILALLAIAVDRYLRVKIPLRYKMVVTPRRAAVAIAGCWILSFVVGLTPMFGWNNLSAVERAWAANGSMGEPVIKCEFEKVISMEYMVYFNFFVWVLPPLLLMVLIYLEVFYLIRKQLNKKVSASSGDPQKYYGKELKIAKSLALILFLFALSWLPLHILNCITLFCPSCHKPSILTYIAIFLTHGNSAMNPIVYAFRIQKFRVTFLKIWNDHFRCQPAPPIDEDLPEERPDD
Experimental Details: Inhibition binding assay, human adenosine A1 receptor membranes, [3H]DPCPX
Measurement Conditions: 1 nM [3H]DPCPX, 25° C., 1 h; IC50 converted to Ki with Cheng-Prusoff; read-out: A1 pKi (converted)
Give log10 of Ki, with Ki taken in nM.

Previously resolved entries follow.
* Cc1cc(-c2c(-c3ccccc3)nc(N)n3c(=O)n(CC4CCN(C(=O)OC(C)(C)C)CC4)nc23)cc(C)n1 [Example 2-67] | 3.00
* Cc1cc(-c2c(-c3ccccc3)nc(N)n3c(=O)n(CC45C6C7C8C6C4C8C75)nc23)cc(CO)n1 (centres unmarked) [Example 2-62] | 1.50
* Cc1cc(-c2c(-c3ccccc3)nc(N)n3c(=O)n(C(C)c4ccccn4)nc23)cc(C)n1 (centres unmarked) [Example 1-20] | 2.50
* Cc1cc(-c2c(-c3ccccc3)nc(N)n3c(=O)n(Cc4cccc(=O)[nH]4)nc23)cc(C)n1 [Example 1-9] | 2.10
* Cc1cc(-c2c(-c3ccccc3)nc(N)n3c(=O)n(CC(CO)CO)nc23)cc(C)n1 [Example 2-24] | 2.90
* Cc1cc(-c2c(-c3ccc(C)o3)nc(N)n3c(=O)n(CCC(F)(F)F)nc23)cc(C)n1 [Example 2-43] | 2.70

// for each compound in input: emit log10 Ki
1. COc1ccc(Cn2nc3c(-c4cc(C)nc(C)c4)c(-c4ccccc4)nc(N)n3c2=O)cc1 [Example 1-3]
2. Cc1ccc(Cn2nc3c(-c4cc(C)nc(CO)c4)c(-c4ccccc4)nc(N)n3c2=O)nc1 [Example 1-52]
3. Cc1cc(-c2c(-c3ccccc3)nc(N)n3c(=O)n(C(CN)Cc4ccc(F)cc4F)nc23)cc(C)n1 (centres unmarked) [Example 1-100]

Response:
1. 1.40
2. 2.70
3. 2.50
